B1: tRNA (parent)
chain: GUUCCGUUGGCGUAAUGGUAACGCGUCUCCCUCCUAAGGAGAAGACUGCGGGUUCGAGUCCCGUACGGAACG

variants of: B1; test: yeast fitness relative to wild type (ratio to wild type); higher = fitter; tRNA-Arg(CCU), competitive growth, 37 C, YPD
Variants at the floor of the assay were thinned out.
Catalogue of yeast fitness values
Give the figure only, with no unit attached.

- variant_label: "U13C U59C"
  reported_property: "yeast fitness"
  number: 0.858

Request the reported yeast fitness associated with G25A G39A
0.973

Request the reported yeast fitness associated with C34G C66A
0.543

Request the reported yeast fitness associated with U3C U13A
0.983

Request the reported yeast fitness associated with C31G C62G
0.827

Request the reported yeast fitness associated with U2C A14G U28A
0.534

Request the reported yeast fitness associated with C27U A65C
1.02

Request the reported yeast fitness associated with C55G C61U
0.743

Request the reported yeast fitness associated with C24U G41C
0.847

Request the reported yeast fitness associated with C4G C33A
0.653

Request the reported yeast fitness associated with A15G G38A A40C G41C C49U
0.597

Request the reported yeast fitness associated with C11U C24A A42G A57U U64A A69U
0.505

Request the reported yeast fitness associated with U7A G9C G17C G48A G63A
0.584

Request the reported yeast fitness associated with A43C C46U
1.03

Request the reported yeast fitness associated with A14U A21U
0.547

Request the reported yeast fitness associated with A14C U16C G51C G58A
0.528

Request the reported yeast fitness associated with G41C C62G
0.597

Request the reported yeast fitness associated with A15C U16A A21G U26A C30U C61A A69U
0.575

Request the reported yeast fitness associated with A43C A45G G58C
0.685

Request the reported yeast fitness associated with C24A C29G U54A
0.568

Request the reported yeast fitness associated with G44A A57G
0.688
